study_system: Luciferin 4-monooxygenase (Photinus pyralis)
procedure_details: qHTS Assay for Inhibitors of Firefly Luciferase; further: nearly all actives have a fitted effect of over 40% in size
run_conditions: purified firefly luciferase, luminescence, 8 min; series mostly up to 57.1 µM
Hit rate of the full screen: of about 72,000 compounds, about 1,600 (2.2%) were called active. The call rests on the fitted dose curve; in most records, active means well fitted inhibition curve with a large enough effect; inconclusive means small, poorly fitted or top-dose-only effect; inactive means flat fitted curve, though single readings scatter. The list comes from a sample in which actives are over-represented; it also holds close analogues and randomly drawn compounds.
Pick one and only one: active, inactive

Ask: Please share the test call associated with Cn1cccc1Cc1nnc(SCC(=O)NCc2ccc3c(c2)OCO3)n1CCc1ccccc1 .
Reply: inactive

Ask: Please share the test call associated with COc1ccc(-c2nnc(SCC(=O)c3cccs3)o2)c(OC)c1 .
Reply: active

Ask: Please share the test call associated with O=C(Nc1ccc(Cl)cn1)Nc1cccs1 .
Reply: inactive

Next:
Ask: Please share the test call associated with CCc1nnc(NC(=O)c2cccs2)s1 .
Reply: inactive

Ask: Please share the test call associated with COC(=O)c1cc(Cl)c(NC(=O)c2ccco2)cc1OC .
Reply: inactive

Ask: Please share the test call associated with O=C(Nc1ccc(Oc2ccccc2)cc1)c1ccco1 .
Reply: active

Ask: Please share the test call associated with CN1CCN(S(=O)(=O)c2ccc(NC(=O)c3ccco3)cc2)CC1 .
Reply: inactive

Ask: Please share the test call associated with CCCCN(C)C(=O)C1CCN(Cc2ccccn2)CC1 .
Reply: inactive

Ask: Please share the test call associated with OCCCN1c2ccccc2Nc2nnc(-c3ccccc3)cc21 .
Reply: active

Ask: Please share the test call associated with O=C(Nc1ccc(NC(=O)c2cccs2)cn1)c1ccco1 .
Reply: active

Ask: Please share the test call associated with COc1ccc(C(=O)Nc2cccnc2)cc1C(=O)Nc1cccnc1 .
Reply: inactive

Ask: Please share the test call associated with O=C(COc1ccc2oc3c(c2c1)CCCC3)Nc1ccccn1 .
Reply: inactive

Ask: Please share the test call associated with CCOc1cc(NC(=O)c2ccco2)c(OCC)cc1NC(=O)COc1ccccc1 .
Reply: inactive

Ask: Please share the test call associated with COc1cc(OC)c(C(=O)Nc2ccc(N(C)C)cc2)cc1OC .
Reply: active

Ask: Please share the test call associated with COc1ccc(Cc2nnnn2CC(=O)O)cc1 .
Reply: inactive

Ask: Please share the test call associated with COc1ccc(-n2c(C)cc(C(=O)CSc3nnc(-c4cccs4)o3)c2C)cc1 .
Reply: inactive

Ask: Please share the test call associated with CCn1ccnc1C[C@@H]1COc2ccccc2O1 .
Reply: inactive

Ask: Please share the test call associated with CCC(=O)Nc1ccc(C(=O)CSc2nnc(CNc3ccc(Cl)cc3)o2)cc1OC .
Reply: inactive

Ask: Please share the test call associated with CC(C)(C)NC(=O)c1cc(NC(=O)c2ccco2)cc(NC(=O)c2ccco2)c1 .
Reply: inactive

Ask: Please share the test call associated with Cc1ccnc(NC(=O)c2ccc(NC(=O)c3ccco3)cc2)c1 .
Reply: active

Ask: Please share the test call associated with CCOC(=O)C1CCN(C(c2cc3cc(C)cc(C)c3[nH]c2=O)c2nnnn2C2CCCCC2)CC1 (centres undefined) .
Reply: inactive
